CONDITION DESCRIPTION: mouse, in vivo, ip, 0.5 h
MEASUREMENT KIND: MED

Incoming: Give the value of MED reported for the following: O=C1CCc2ccc(OCCCCN3CCN(c4cccc(Cl)c4Cl)CC3)cc2N1 [ARIPIPRAZOLE]
Outgoing: > 2.5 mg/kg

====

TARGET OR TEST SYSTEM: UniProt P28223
Sequence (P28223 whole entry): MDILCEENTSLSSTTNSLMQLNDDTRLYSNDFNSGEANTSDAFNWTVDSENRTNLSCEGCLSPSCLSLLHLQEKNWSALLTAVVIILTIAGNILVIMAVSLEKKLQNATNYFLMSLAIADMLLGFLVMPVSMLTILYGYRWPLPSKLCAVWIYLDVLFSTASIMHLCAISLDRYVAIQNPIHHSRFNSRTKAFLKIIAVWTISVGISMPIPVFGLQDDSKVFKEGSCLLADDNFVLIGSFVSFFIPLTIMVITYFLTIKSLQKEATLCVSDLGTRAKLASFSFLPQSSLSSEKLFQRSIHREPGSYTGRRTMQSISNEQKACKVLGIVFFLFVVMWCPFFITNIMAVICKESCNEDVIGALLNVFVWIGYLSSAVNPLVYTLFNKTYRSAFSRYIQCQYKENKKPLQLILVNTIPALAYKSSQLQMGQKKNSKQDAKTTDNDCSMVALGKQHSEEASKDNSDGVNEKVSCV
Entries and their pKi values follow.
Convention used: pKi is expressed as -log10 of the molar concentration.

[[record]]
chem_smiles = "Cc1cccc(S(=O)(=O)N[C@H]2CCN(CCCc3noc4cc(F)ccc34)C2)c1"
target_or_test_system = "UniProt P28223"
measurement_kind = "pKi"
recorded_measurement = 8.99


Now examine the next entry.
Incoming: Find the measured pKi of O=S(=O)(N[C@@H]1CCN(CCCc2noc3cc(F)ccc23)C1)c1ccc(F)c(Cl)c1 with UniProt P28223 as test system.
Outgoing: 8.28

====

TARGET OR TEST SYSTEM: UniProt:P34969
Sequence (P34969 whole entry): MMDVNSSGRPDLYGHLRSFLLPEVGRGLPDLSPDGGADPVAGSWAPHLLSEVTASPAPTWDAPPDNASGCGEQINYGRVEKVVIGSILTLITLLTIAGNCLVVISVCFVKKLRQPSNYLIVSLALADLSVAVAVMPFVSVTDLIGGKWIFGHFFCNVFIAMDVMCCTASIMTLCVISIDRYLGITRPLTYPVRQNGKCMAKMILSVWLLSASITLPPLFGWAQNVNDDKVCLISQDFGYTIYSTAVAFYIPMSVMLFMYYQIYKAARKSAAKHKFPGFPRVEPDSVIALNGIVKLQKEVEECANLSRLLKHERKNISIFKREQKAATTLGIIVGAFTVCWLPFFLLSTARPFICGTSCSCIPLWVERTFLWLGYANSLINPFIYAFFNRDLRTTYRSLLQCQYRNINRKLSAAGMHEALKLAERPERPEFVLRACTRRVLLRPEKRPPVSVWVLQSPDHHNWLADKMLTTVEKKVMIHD
MEASUREMENT KIND: Ki (nM)
Quick note: give the figure in nM, leave out the unit.

Incoming: Provide only the value of recorded Ki for O=S(=O)(N[C@H]1CCN(CCCc2noc3cc(F)ccc23)C1)c1ccc(F)c(Cl)c1
Outgoing: 25.7
